Cited source for all entries: ChEMBL document CHEMBL3433997

- SYSTEM_TESTED: Solute carrier family 2, facilitated glucose transporter member 1 (Homo sapiens) (UniProt P11166)
- Sequence (P11166 whole entry): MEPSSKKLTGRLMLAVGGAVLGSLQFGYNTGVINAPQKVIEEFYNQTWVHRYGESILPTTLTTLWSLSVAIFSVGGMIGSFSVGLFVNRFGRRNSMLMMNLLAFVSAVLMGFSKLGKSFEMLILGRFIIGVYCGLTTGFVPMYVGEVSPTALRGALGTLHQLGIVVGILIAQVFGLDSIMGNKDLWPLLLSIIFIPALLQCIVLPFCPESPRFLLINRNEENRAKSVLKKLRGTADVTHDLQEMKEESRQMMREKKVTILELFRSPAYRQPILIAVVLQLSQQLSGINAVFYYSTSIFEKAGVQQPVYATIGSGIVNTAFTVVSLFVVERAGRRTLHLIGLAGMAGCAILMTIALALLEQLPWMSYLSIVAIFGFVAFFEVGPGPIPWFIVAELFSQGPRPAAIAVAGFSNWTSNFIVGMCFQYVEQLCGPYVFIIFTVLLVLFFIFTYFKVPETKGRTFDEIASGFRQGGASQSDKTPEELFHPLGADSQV
- METHOD_NOTES: ST_JUDE_LEISH: Cytotoxicity at 2uM final concentration against transgenic Leishmania Mexicana promastigotes LmGLUT1 that are glucose transport deficient and complemented with the human glucose transporter GLUT1. Activity is measured by DNA content using SYBR green in vitro
- Format: functional
Listing: inhibition of selected molecules
OUTCOME_MEASURE: inhibition (%)

{"MOLECULE": "Cc1ccc2[nH]c(-c3cc(-c4cccc(CCN5CCOCC5)c4)cnc3N)nc2c1", "UNITS_TEXT": "%", "OBSERVED": 4.66}
{"MOLECULE": "O=[N+]([O-])c1ccc2c(c1)c1ccccc1n2Cc1ccccc1O", "UNITS_TEXT": "%", "OBSERVED": 0.12}
{"MOLECULE": "O=[N+]([O-])c1cccc(Nc2cncc(-c3ccc(CO)cc3)c2)c1", "UNITS_TEXT": "%", "OBSERVED": 2.04}
{"MOLECULE": "O=C(NCC1CC1)C1Cc2c([nH]c3ccc(Br)cc23)C2(CCN(CCc3ccccc3)CC2)N1 (stereo not given)", "UNITS_TEXT": "%", "OBSERVED": 1.43}
{"MOLECULE": "Nc1cccc(CNCc2ccc(-c3cccc(-c4nc5cc(C(F)(F)F)ccc5[nH]4)c3)cc2)c1", "UNITS_TEXT": "%", "OBSERVED": 0.23}
{"MOLECULE": "COc1ccc(CNC2CCN(C)CC2)cc1-c1ccc(S(=O)(=O)NCc2ccccc2)c(C)c1", "UNITS_TEXT": "%", "OBSERVED": 7.68}
{"MOLECULE": "O=C(Nc1ccc(Cl)cc1)c1ccc(S(=O)(=O)NCC2CCN(CC3CCCCC3)CC2)cc1", "UNITS_TEXT": "%", "OBSERVED": 2.97}
{"MOLECULE": "CCC(C)OC(=O)C1=C(C)NC2=C(C(=O)CC(c3ccc(OC)c(OC)c3)C2)C1c1ccc(C)o1 (stereo not given)", "UNITS_TEXT": "%", "OBSERVED": 2.36}
{"MOLECULE": "CN1CCN(CCCNCc2ccc(Nc3nccc(Nc4ccc(Oc5ccccc5)cc4)n3)cc2)CC1", "UNITS_TEXT": "%", "OBSERVED": 0.09}
{"MOLECULE": "COc1ccc2nccc([C@@H](O)CN3CCC(NCc4ccc5c(c4)NC(=O)CS5)CC3)c2c1", "UNITS_TEXT": "%", "OBSERVED": 1.65}
{"MOLECULE": "CCN(CC)CCCC(C)Nc1ccnc2ccc(OC)cc12 (stereo not given)", "UNITS_TEXT": "%", "OBSERVED": 8.15}
{"MOLECULE": "CCCCn1c(C(C)Oc2ccc(Cl)cc2Cl)nc2cc(S(N)(=O)=O)ccc21 (stereo not given)", "UNITS_TEXT": "%", "OBSERVED": -0.86}
{"MOLECULE": "Cc1cc(F)ccc1-c1nc(NCCCN2CCCC2=O)nc2c1ccc(=O)n2-c1c(F)cccc1F", "UNITS_TEXT": "%", "OBSERVED": 15.4}
{"MOLECULE": "COc1ccc(Oc2cnc(N)nc2N)c(C(C)C)c1", "UNITS_TEXT": "%", "OBSERVED": 4.31}
{"MOLECULE": "Cc1c(Cl)cccc1N=C(S)NN=Cc1ccccn1", "UNITS_TEXT": "%", "OBSERVED": 1.43}
{"MOLECULE": "CC(CN1CCN(C)CC1)C(=O)Nc1cccc(-c2cccc(-c3nc4cc(F)ccc4[nH]3)c2)c1 (stereo not given)", "UNITS_TEXT": "%", "OBSERVED": 6.87}
{"MOLECULE": "CCNc1cc(C(=O)N[C@@H](Cc2ccc(Cl)cc2)[C@H](O)CNC2CCCCC2)cc(N2CCCCS2(=O)=O)c1", "UNITS_TEXT": "%", "OBSERVED": 0.89}
{"MOLECULE": "CC(=O)NCC(=O)NC1=NC(=N)N(OCc2ccc3ccccc3c2)C(C)(C)N1", "UNITS_TEXT": "%", "OBSERVED": 2.26}
{"MOLECULE": "CCC(C)(C)c1ccc(N2C(N)=NC(N)=NC2(C)C)cc1", "UNITS_TEXT": "%", "OBSERVED": -2.05}
{"MOLECULE": "CCc1cn2c3c(cc(C(=O)N[C@@H](Cc4ccccc4)[C@H](O)CNC4CCOCC4)cc13)N(CC(F)(F)F)S(=O)(=O)CC2", "UNITS_TEXT": "%", "OBSERVED": 2.22}
{"MOLECULE": "Cc1cc(N2CCOCC2)nc2ccc(NC(=O)c3cccc([N+](=O)[O-])c3)cc12", "UNITS_TEXT": "%", "OBSERVED": 5.27}
{"MOLECULE": "COc1ccc(NC(=O)c2ccc(Br)c(C)c2)cc1N1CCN(Cc2ccccc2)CC1", "UNITS_TEXT": "%", "OBSERVED": 1.57}
{"MOLECULE": "COc1ccccc1CCNc1nc(C)cc(N[C@@H](Cc2ccccc2)C(=O)NCc2cccs2)n1", "UNITS_TEXT": "%", "OBSERVED": 2.42}
{"MOLECULE": "CCN1C(=O)N(CCC(C)C)C2(CCN(Cc3ccc(OC)cc3O)CC2)C1=O", "UNITS_TEXT": "%", "OBSERVED": 5.4}
{"MOLECULE": "CC(=O)c1c(C)[nH]c(C(=O)Nc2ccc(-c3nc4ccc(C)cc4s3)cc2)c1C", "UNITS_TEXT": "%", "OBSERVED": -0.62}
{"MOLECULE": "O=C(Nc1ccc(F)c([N+](=O)[O-])c1)Nc1cc(C(F)(F)F)ccc1Cl", "UNITS_TEXT": "%", "OBSERVED": 0.18}
{"MOLECULE": "Cc1cccc2sc(N(CCCn3ccnc3)C(=O)C=Cc3cccs3)nc12", "UNITS_TEXT": "%", "OBSERVED": 12.6}
{"MOLECULE": "COc1cc2nc(N3CCC(CNC(=O)c4ccc(-c5ccc(C(=O)N(C)C)cc5O)cc4)CC3)nc(N)c2cc1OC", "UNITS_TEXT": "%", "OBSERVED": 0.58}
{"MOLECULE": "Cc1[nH]c(C)c(-c2ccc(Oc3ccc(F)cc3)cc2)c(=O)c1Cl", "UNITS_TEXT": "%", "OBSERVED": 4.38}
{"MOLECULE": "N#Cc1ccc(CN2CCC(Oc3ccc(NC(=O)c4ccsc4)cc3Cl)C2)cc1 (stereo not given)", "UNITS_TEXT": "%", "OBSERVED": 8.19}
{"MOLECULE": "CCCN(CC1CC1)c1ncc(-c2ccccc2CNCc2ccccc2O)cn1", "UNITS_TEXT": "%", "OBSERVED": 11.8}
{"MOLECULE": "Cc1ccc(NC(=O)c2ccc3ncccc3c2)cc1OC1CCN(Cc2ccc(F)cc2)C1 (stereo not given)", "UNITS_TEXT": "%", "OBSERVED": 1.19}
{"MOLECULE": "Cc1ccc(S(=O)(=O)Nc2ccc(Nc3nccc(Nc4cccc5[nH]ncc45)n3)cc2)cc1", "UNITS_TEXT": "%", "OBSERVED": 1.77}
{"MOLECULE": "Clc1ccc(-c2cnc3ccc(NCCc4cccnc4)nn23)cc1", "UNITS_TEXT": "%", "OBSERVED": 1.24}
{"MOLECULE": "CN(CCN)Cc1ccc(-c2ccc(-c3nc4cc(F)ccc4[nH]3)s2)cc1", "UNITS_TEXT": "%", "OBSERVED": -0.54}
{"MOLECULE": "COc1ccc(Nc2cc(C)c3cc(NC(=O)c4ccncc4)ccc3n2)cc1", "UNITS_TEXT": "%", "OBSERVED": 0.86}
{"MOLECULE": "CCCc1ccc(S(=O)(=O)NC2CCN(C(=O)Nc3ccc(I)cc3)CC2)cc1", "UNITS_TEXT": "%", "OBSERVED": 5.43}
{"MOLECULE": "COc1ccc(Cn2ncc3c4c(N)nc(N)nc4ccc32)cc1OC", "UNITS_TEXT": "%", "OBSERVED": 86.6}
{"MOLECULE": "Cc1cc(Nc2ncc3c(n2)N(C2CCC2)CC3)ccc1N1CCN(C)CC1", "UNITS_TEXT": "%", "OBSERVED": 0.65}
{"MOLECULE": "CCOc1cc(Cl)c(C(C)NC(=O)c2cccc(OC)c2)cc1OCC (stereo not given)", "UNITS_TEXT": "%", "OBSERVED": 7.84}

----------
- SYSTEM_TESTED: Glucose transporter (Leishmania mexicana) (UniProt O61059)
- METHOD_NOTES: ST_JUDE_LEISH: Cytotoxicity at 2uM final concentration against transgenic Leishmania Mexicana promastigotes LmGT2 that are glucose transport deficient and complemented with the L. Mexicana glucose transporter 2. Activity is measured by DNA content using SYBR green in vitro
- Assay type: functional

{"MOLECULE": "Fc1ccc2nc(Nc3nc(-c4ccccn4)cs3)sc2c1", "inhibition, %": 0.2}
{"MOLECULE": "Cc1ccc(Cc2c(C)nc3nc(N)nc(N)c3c2C)cc1", "inhibition, %": 54.4}
{"MOLECULE": "CCCOc1ccc(-c2nonc2NC(=O)c2cccc(OC)c2)cc1OCCC", "inhibition, %": 10.5}
{"MOLECULE": "COC(=O)c1cccc(CNCc2ccc(-c3cccc(-c4nc5cc(C(F)(F)F)ccc5[nH]4)c3)cc2)c1", "inhibition, %": 11.5}
{"MOLECULE": "Cc1cc(N[C@@H](Cc2ccccc2)C(=O)NCCCOC(C)C)nc(NCCc2ccc(F)cc2)n1", "inhibition, %": 0.38}
{"MOLECULE": "C=CCN(c1nc(NC)nc(NCc2c(OC)cccc2OC)n1)C1CCCC1", "inhibition, %": 1.88}
{"MOLECULE": "Nc1nc(O)c2c(n1)CCc1c(Br)cccc1-2", "inhibition, %": -1.14}
{"MOLECULE": "N=C(NCCCCCCCCNC(=N)Nc1ccc(Cl)cc1)Nc1ccc(Cl)cc1", "inhibition, %": 8.78}
{"MOLECULE": "Cc1cccc(-c2ccc(NC(=O)C3CCN(Cc4cccc(O)c4)CC3)cc2)c1", "inhibition, %": -0.58}
{"MOLECULE": "Cc1ccoc1C(=O)Nc1cccc(-c2cccc(-c3nc4cc(C(F)(F)F)ccc4[nH]3)c2)c1", "inhibition, %": -0.44}
{"MOLECULE": "COC(=O)c1cccc(CNCc2cccc(-c3ccc(-c4nc5cccc(C)c5[nH]4)s3)c2)c1", "inhibition, %": 0.69}
{"MOLECULE": "O=C(CSc1nccn1Cc1ccco1)Nc1cc(C(F)(F)F)ccc1Cl", "inhibition, %": 9.28}
{"MOLECULE": "CCOc1cc(C(=O)Nc2ccccc2N2CCN(S(C)(=O)=O)CC2)cc(OCC)c1OCC", "inhibition, %": 3.43}
{"MOLECULE": "CC(CCc1ccccc1)NCC(O)c1ccc2c3c(cccc13)C(=O)N2C (stereo not given)", "inhibition, %": -0.76}
{"MOLECULE": "O=S(=O)(Nc1ccc(CCN2CCCCC2CCN2CCCC2)cc1)c1cccc2cccnc12 (stereo not given)", "inhibition, %": 2.15}
{"MOLECULE": "CCCCc1ccc(-c2nc(NC(=O)Nc3[nH]c(-c4ccccc4)nc3C(=O)OCC)c(C(=O)OCC)[nH]2)cc1", "inhibition, %": -0.95}
{"MOLECULE": "Cn1c2c(c3ccccc31)CN(CCC1(c3ccc(Cl)c(Cl)c3)CN(C(=O)Cc3ccccc3)CCO1)CC2 (stereo not given)", "inhibition, %": -1.01}
{"MOLECULE": "CN1CCC(NCc2cccc(-c3cnc(NCc4ccccc4)nc3)c2)CC1", "inhibition, %": 1}
{"MOLECULE": "COc1ccc(CCNC(=O)c2cc(C)ccc2O)cc1-c1ccc(C(C)(C)C)cc1", "inhibition, %": 4.35}
{"MOLECULE": "CCN(CC)CCCSc1ccc(-c2ccc(SCCCN(CC)CC)cc2)cc1", "inhibition, %": 78.2}
